Value source: a melting point compilation (Tetko et al.; mined from patent text by program, amines drawn as free bases though some values may be those of a salt)

MEASURE_NAME: melting point

COMPOUND	MEASURE_NAME	OBS_VALUE
C=CCN1CC(C)N(C(c2cccc(O)c2)c2cccc(C#N)c2)CC1C (centres undefined)	melting point	169 to 171 °C
O=C1c2ccccc2C(=O)c2sc(-c3ccc(Br)o3)nc21	melting point	> 260 °C
Cc1c(C)c2c(c(C)c1O)CCC(C)(C#N)O2 (centres undefined)	melting point	149 to 151 °C
Cc1cc(Cl)ccc1N1CN(C)CN(C)C1=S	melting point	103 to 105 °C
COC(Cc1ccc(I)cc1)c1ccc(I)cc1 (centres undefined)	melting point	62 to 64 °C
Nc1cccc2c1cnn2-c1ccc(F)cc1	melting point	84 to 88 °C
Cc1ccc(-c2ccccc2)c(NC(=N)N2CCOCC2)c1	melting point	154 to 155 °C
CCCC(=O)C(=CNc1cccc(COC(=O)c2ccccc2)c1)C(=O)OCC	melting point	59 to 63 °C
C#CCn1c(-c2cccc(C=O)c2)nc(CC)c(CC)c1=O	melting point	82 to 86 °C
CCOC(=O)c1c(OC)c2ccccc2c2nc3ccccc3nc12	melting point	155 to 157 °C

Take each entry in turn and give its melting point.
1. O=C(CCc1cccc(Br)c1)c1cnc2sc3c(n12)CCCCC3
2. CNC(=O)C(=O)CCCCCON=Cc1ccc(-c2ccccc2)cc1
3. CC(C)(C)Oc1ccc(C(=O)N[C@H]2CC[C@H](CCN3CCN(c4nccc5c4OCC5)CC3)CC2)cc1
4. COC(=O)C(C)C(=O)Nc1ccc(OCc2cccc(F)c2)cc1 (centres undefined)

a:
1: 77 to 79 °C; 2: 86 to 87 °C; 3: 168 °C; 4: 119 °C

---

MEASURE_NAME: melting point

Sample answers from the record:
COMPOUND	MEASURE_NAME	OBS_VALUE
COc1nc(CO)c(CO)n1C	melting point	110 to 119 °C
O=C1CC2=C(CCN1)c1ccccc1Sc1ccccc12	melting point	195 to 198 °C
CCNc1ccc(Cl)cc1C(=O)c1ccccc1	melting point	57 to 58 °C
NC(=O)c1cccc(-c2cccc3oc(Cc4cccc(C(F)(F)F)c4)cc23)c1	melting point	159 to 160 °C
COc1ccc2c(c1C=O)OCO2	melting point	124 °C

Parameter requested: melting point. Apply to each item below.
1. CCOC(=O)c1cn(-c2nc(NC(C)(C)C)c(F)cc2F)c2c(F)c(F)c(F)cc2c1=O
2. Nc1ncc(Sc2ccc(C(F)(F)F)cn2)s1
3. CCC(=O)CC(=O)c1ccc(C(=O)CC(=O)CC)cc1
4. CCC(C#N)C(=O)Nc1ccc(C2=NNC(=O)CC2C)cc1 (stereo not drawn)
5. Oc1ccc(CCCn2ccnc2S)cc1
6. CC(C)CC(=O)NC(=O)c1nnn(Cc2ccccc2)c1NC(=O)CC(C)C

a:
["174 to 178 °C", "135 to 138 °C", "122 to 124 °C", "225 to 227 °C", "185 °C", "125 to 128 °C"]

Parameter requested: melting point. Apply to each item below.
1. Cc1ccc2c(c1)C(=O)N(C)CC(=O)N2
2. CSCCOc1ccccc1NN
3. CC(=O)c1cc2ccccc2cn1

a:
["243 to 244 °C", "72.5 to 74.5 °C", "84.4 to 86.8 °C"]

Parameters: items (list). Returns: melting point for each item.
1. COc1ccccc1CC(O)(c1ccccc1)C1CCN(CCCC(=O)c2ccc(C(C)(C)C)cc2)CC1 (stereo not drawn)
2. COc1ccc2c(c1)CN(C=O)N=C2Cc1c(Cl)cncc1Cl
3. Cc1cc(CC#N)cc(Cc2nc3c(F)c(F)cc(F)c3s2)c1
4. CC(=O)N1CCc2sc(C(=O)CCCN3CCC(c4noc5cc(F)ccc45)CC3)cc2C1

a:
118 to 120 °C
165 to 167 °C
110 to 113 °C
235 °C

Provide the reported melting point of each entry below, same order.
1. CCCn1nc2c(N)nc3ccccc3c2c1CC(C)(C)NC(=O)c1ccc(F)c(F)c1
2. Cc1ccc(Sc2c(SCc3ccccc3)cc(C(=O)O)cc2S(=O)(=O)Cl)cc1
3. COc1cc(Nc2nccc(-c3cccc(Br)c3)n2)cc(OC)c1OC
4. Cc1cccc(-c2n[nH]cc2-c2ccc(F)c(-c3cc(F)c(S(N)(=O)=O)cc3F)c2)n1
5. CCOC(=O)C1=C(COCC(C)(O)Cn2cnnc2)NC(C)=C(C(=O)OC)C1c1cccc(Cl)c1Cl (stereo not drawn)

a:
1. 165 to 166 °C
2. 188 to 190 °C
3. 145 °C
4. 122 to 125 °C
5. 172 to 176 °C
